The measured values listed here are drawn from patent US7718618B2.

Test system: Group A Streptococcus (NZ131)
Type: cell-based
Ends that are not written are not given here.
Measured Endpoint: Liquid Assay GAS (NZ131), minimal concentration required to kill (μm)

>>> test_result("H-RKSKEKIGKEFKRIVQRIKDFLRNLVPRTES-OH [RK-31]")
8
>>> test_result("H-KSKEKIGKEFKRIVQRIKDFLRNLVPRTES-OH [KS-30]")
4
>>> test_result("KRIVQRIKDFLRNLVPRTES [KR-20]")
4

###

Test system: enteroinvasive E. coli 029
Assay: Radial diffusion assay against E. coli O29
Assay type: cell-based
Settings: radial diffusion assay
Ends that are not written are not given here.
Measured Endpoint: Radial Diffusion Assay E. coli (O29), minimal inhibitory concentration (MIC)

>>> test_result("H-RKSKEKIGKEFKRIVQRIKDFLRNLVPRTES-OH [RK-31]")
"8 μm"
>>> test_result("KRIVQRIKDFLRNLVPRTES [KR-20]")
">64 μm"
>>> test_result("H-KSKEKIGKEFKRIVQRIKDFLRNLVPRTES-OH [KS-30]")
"8 μm"
>>> test_result("SSLLEKGLDGAKKAVGGLGKLGKDAVEDLESVGKGAVHDVKDVLDSV (listed as Homo sapiens) [DCD, dermcidin antimicrobial peptide of human sweat, reference compound]")
">64 μm"
